Cited source: patent US20260176249A1

Quick reference for log10 half-life at 1 µM among some molecules
assay: Metabolic stability in rat liver microsomes; type: in vitro ADME; details: rat, pH 7.4
Each number you see is log10 of half-life at 1 µM, and the unit inside the log is min.

Use the examples below as a reference point.
CN1CCN(c2ccc(OC(F)(F)F)c(Nc3ncc4c(n3)-c3c(c(C(=O)NO)nn3CCF)CC4)c2)CC1 ... 0.78
CN1CCN(c2ccc(OC(F)(F)F)c(Nc3ncc4ccc5c(C(N)=O)nn(CCF)c5c4n3)c2)CC1 ... 0.69
CN1CCN(c2ccc(OC(F)(F)F)c(Nc3ncc4c(n3)-c3c(c(C(N)=O)nn3CCC#N)CC4)c2)CC1 ... 1.07

Please find the next molecule below.
For Cn1nc(C(N)=O)c2ccc3cnc(Nc4cc(N5CCN(CCO)CC5)ccc4OC(F)(F)F)nc3c21 the molecule record lists log10 half-life at 1 µM as 1.44

----------
Quick reference for half-life at 1 µM among some compounds
assay: Metabolic stability in mouse liver microsomes; type: in vitro ADME; settings: mouse, pH 7.4
Write the value in min as a bare number.

Use the examples below as a reference point.
CN1CCN(c2ccc(OC(F)(F)F)c(Nc3ncc4c(n3)-c3c(c(C(N)=O)nn3CCC#N)CC4)c2)CC1 [Compound 4] ... 4.47
CN1CCN(c2ccc(OC(F)(F)F)c(Nc3ncc4c(n3)-c3c(c(C(N)=O)cn3CCO)CC4)c2)CC1 [Compound 2] ... 31.4
CCc1sc(C(N)=O)c2c1-c1nc(Nc3cc(N4CCN(C)CC4)ccc3OC(F)(F)F)ncc1CC2 [Compound 7] ... 5.84
CN1CCN(c2ccc(OC(F)(F)F)c(Nc3ncc4ccc5c(C(N)=O)nn(CCF)c5c4n3)c2)CC1 [Compound 18] ... 13.4

Please find the next compound below.
For Cn1nc(C(N)=O)c2ccc3cnc(Nc4cc(N5CCN(CCO)CC5)ccc4OC(F)(F)F)nc3c21 [Compound 16] the compound record lists half-life at 1 µM as 29.9

----------
test: Metabolic stability in human liver microsomes; format: in vitro ADME; conditions: human, pH 7.4
measurement_name: CLint scaled at 1 µM (mL/min/kg)
Write the value in mL/min/kg as a bare number.

CCc1sc(C(N)=O)c2c1-c1nc(Nc3cc(N4CCN(C)CC4)ccc3OC(F)(F)F)ncc1CC2 [Compound 7] ... 60.7
CN1CCN(c2ccc(OC(F)(F)F)c(Nc3ncc4c(n3)-c3c(c(C(=O)NNC(N)=O)nn3C)CC4)c2)CC1 [Compound 12] ... 10.4
CN1CCN(c2ccc(OC(F)(F)F)c(Nc3ncc4c(n3)-c3c(c(C(N)=O)nn3CCO)CC4)c2)CC1 [Onvansertib, reference compound] ... 15.3
Cn1nc(C(N)=O)c2c1-c1nc(Nc3cc(N4CCN(CCO)CC4)ccc3OC(F)(F)F)ncc1CC2 [Compound 20] ... 39.1

Please find the next compound below.
For CN1CCN(c2ccc(OC(F)(F)F)c(Nc3ncc4ccc5c(C(N)=O)nn(CCF)c5c4n3)c2)CC1 [Compound 18] the compound record lists CLint scaled at 1 µM as 78.7

----------
experiment: Permeability and efflux transporter substrate evaluation in Caco-2 cells; type: in vitro ADME; parameters: dose or concentration left out as unconfirmed; settings: human, pH 7.4; Caco-2, basolateral to apical, 120 min, pH 7.40
Quick reference for Papp B→A at 120 min among some compounds
Write the value in ×10⁻⁶ cm/s as a bare number.

CCc1sc(C(N)=O)c2c1-c1nc(Nc3cc(N4CCN(C)CC4)ccc3OC(F)(F)F)ncc1CC2 ... 0.542
CN1CCN(c2ccc(OC(F)(F)F)c(Nc3ncc4ccc5c(C(N)=O)nn(C)c5c4n3)c2)CC1 ... 0.851
CN1CCN(c2ccc(OC(F)(F)F)c(Nc3ncc4c(n3)-c3c(c(C(=O)NS(=O)(=O)C(F)(F)F)nn3CCO)CC4)c2)CC1 ... 14.5
CN1C2CCC1CN(c1ccc(OC(F)(F)F)c(Nc3ncc4c(n3)-c3c(c(C(N)=O)nn3CCO)CC4)c1)C2 ... 23.1

Please find the next compound below.
For CN1CCN(c2ccc(OC(F)(F)F)c(Nc3ncc4c(n3)-c3c(c(C(=O)NO)nn3CCO)CC4)c2)CC1 the compound record lists Papp B→A at 120 min as 24.8

----------
assay: Metabolic stability in human liver microsomes; assay type: in vitro ADME
measurement_name: Clearance rate

CCc1sc(C(N)=O)c2c1-c1nc(Nc3cc(N4CCN(C)CC4)ccc3OC(F)(F)F)ncc1CC2 [Compound 7] ... High
CN1CCN(c2ccc(OC(F)(F)F)c(Nc3ncc4c(n3)-c3c(c(C(N)=O)nn3CCC#N)CC4)c2)CC1 [Compound 4] ... Medium
CN1CCN(c2ccc(OC(F)(F)F)c(Nc3ncc4c(n3)-c3c(c(C(N)=O)nn3CCO)CC4)c2)CC1 [Onvansertib, reference compound] ... Medium

----------
experiment: Metabolic stability in mouse liver microsomes; assay type: in vitro ADME; conditions: mouse, pH 7.4
measurement_name: CLint scaled at 1 µM

Use the examples below as a reference point.
CN1CCN(c2ccc(OC(F)(F)F)c(Nc3ncc4c(n3)-c3c(c(C(N)=O)cn3CCO)CC4)c2)CC1 ... 175 mL/min/kg
Cn1nc(C(N)=O)c2ccc3cnc(Nc4cc(N5CCN(CCO)CC5)ccc4OC(F)(F)F)nc3c21 ... 184 mL/min/kg
Cn1nc(C(N)=O)c2c1-c1nc(Nc3cc(N4CCN(CCO)CC4)ccc3OC(F)(F)F)ncc1CC2 ... 238 mL/min/kg

For CN1CCN(c2ccc(OC(F)(F)F)c(Nc3ncc4ccc5c(C(N)=O)nn(CCF)c5c4n3)c2)CC1 the compound record lists CLint scaled at 1 µM as 409 mL/min/kg

----------
assay: Permeability and efflux transporter substrate evaluation in Caco-2 cells; type: in vitro ADME; parameters: dose or concentration left out as unconfirmed; conditions: human, pH 7.4; Caco-2, apical to basolateral, 120 min, pH 7.40
measurement_name: Papp A→B at 120 min

Use the examples below as a reference point.
CN1CCN(c2ccc(OC(F)(F)F)c(Nc3ncc4c(n3)-c3c(c(C(=O)NN)nn3CCO)CC4)c2)CC1 ... < 0.48 ×10⁻⁶ cm/s
CN1CCN(c2ccc(OC(F)(F)F)c(Nc3ncc4c(n3)-c3c(c(C(=O)NO)nn3CCO)CC4)c2)CC1 ... < 0.48 ×10⁻⁶ cm/s
CN1CCN(c2ccc(OCC(F)(F)F)c(Nc3ncc4c(n3)-c3c(c(C(N)=O)nn3CCO)CC4)c2)CC1 ... 0.106 ×10⁻⁶ cm/s
CN1CCN(c2ccc(OC(F)(F)F)c(Nc3ncc4c(n3)-c3c(c(C(=O)NS(=O)(=O)C5CC5)nn3CCO)CC4)c2)CC1 ... < 0.254 ×10⁻⁶ cm/s

For CN1CCN(c2ccc(OC(F)(F)F)c(Nc3ncc4c(n3)-c3c(c(C(=O)NS(=O)(=O)C(F)(F)F)nn3CCO)CC4)c2)CC1 the compound record lists Papp A→B at 120 min as < 0.48 ×10⁻⁶ cm/s

For CN1CCN(c2ccc(OC(F)(F)F)c(Nc3ncc4ccc5c(C(N)=O)nn(C)c5c4n3)c2)CC1 the compound record lists Papp A→B at 120 min as 0.644 ×10⁻⁶ cm/s

For CN1CCN(c2ccc(OC(F)(F)F)c(Nc3ncc4c(n3)-c3c(c(C(=O)NOCCO)nn3C)CC4)c2)CC1 the compound record lists Papp A→B at 120 min as 1.13 ×10⁻⁶ cm/s

For CN1CCN(c2ccc(OC(F)(F)F)c(Nc3ncc4c(n3)-c3c(c(C(N)=O)cn3CCO)CC4)c2)CC1 the compound record lists Papp A→B at 120 min as < 0.48 ×10⁻⁶ cm/s

For CN1CCN(c2ccc(OC(F)(F)F)c(Nc3ncc4c(n3)-c3c(c(C(=O)NNC(N)=O)nn3C)CC4)c2)CC1 the compound record lists Papp A→B at 120 min as < 0.264 ×10⁻⁶ cm/s

For CN1C2CCC1CN(c1ccc(OC(F)(F)F)c(Nc3ncc4c(n3)-c3c(c(C(N)=O)nn3CCO)CC4)c1)C2 the compound record lists Papp A→B at 120 min as < 0.28 ×10⁻⁶ cm/s

For CCc1sc(C(N)=O)c2c1-c1nc(Nc3cc(N4CCN(C)CC4)ccc3OC(F)(F)F)ncc1CC2 the compound record lists Papp A→B at 120 min as 0.275 ×10⁻⁶ cm/s

----------
experiment: Metabolic stability in rat liver microsomes; assay type: in vitro ADME
measurement_name: 60 min remaining amount (%)
Write the value in % as a bare number.

Use the examples below as a reference point.
Cn1nc(C(N)=O)c2c1-c1nc(Nc3cc(N4CCN(CCO)CC4)ccc3OC(F)(F)F)ncc1CC2 ... 21.6
CN1CCN(c2ccc(OC(F)(F)F)c(Nc3ncc4ccc5c(C(N)=O)nn(CCF)c5c4n3)c2)CC1 ... 2.74
CN1CCN(c2ccc(OC(F)(F)F)c(Nc3ncc4ccc5c(C(=O)NO)nn(CCO)c5c4n3)c2)CC1 ... 11.9
Cn1nc(C(N)=O)c2ccc3cnc(Nc4cc(N5CCN(CCO)CC5)ccc4OC(F)(F)F)nc3c21 ... 21.6
CN1CCN(c2ccc(OC(F)(F)F)c(Nc3ncc4c(n3)-c3c(c(C(=O)NN)nn3CCO)CC4)c2)CC1 ... 27.8

Please find the next compound below.
For CN1CCN(c2ccc(OC(F)(F)F)c(Nc3ncc4ccc5c(C(N)=O)nn(C)c5c4n3)c2)CC1 the compound record lists 60 min remaining amount as 2.74
